Test system: SMMC-7721
Assay explanation: Cytotoxicity against human SMMC7721 cells assessed as inhibition of cell growth after 48 hrs by MTT assay
Format: functional, cell-based
Measurement context: SMMC-7721, 48 h
Listed below: IC50 values for each entry.
Metric: IC50

# Smiles entry, Result
data = [
    ("COc1ccc2c3ccnc(C)c3n(Cc3ccccc3F)c2c1", "> 50 µM"),
    ("COc1ccc2c3ccnc(C)c3n(Cc3cc(F)cc(F)c3)c2c1", "> 50 µM"),
    ("COc1ccc2c3ccnc(C)c3n(S(=O)(=O)c3ccc(C)cc3)c2c1", "> 50 µM"),
]

---

Tested on: A549
Assay explanation: Cytotoxicity against human A549 cells assessed as inhibition of cell growth after 48 hrs by MTT assay
Assay type: functional, cell-based
Measurement context: A549, 48 h
Listed below: IC50 values for each entry.
Metric: IC50

# Smiles entry, Metric, Result
rows = [
    ("COc1ccc2c3ccnc(C)c3n(Cc3ccccc3)c2c1", "IC50", "7.49 µM"),
    ("CCCn1c2cc(OC)ccc2c2ccnc(C)c21", "IC50", "9.66 µM"),
    ("COc1ccc2c3ccnc(C)c3n(CCCCBr)c2c1", "IC50", "12.2 µM"),
    ("COc1ccc2c3ccnc(C)c3n(CCCCCl)c2c1", "IC50", "8.73 µM"),
    ("COc1ccc2c3ccnc(C)c3n(Cc3ccc(F)cc3)c2c1", "IC50", "8.73 µM"),
    ("COc1ccc2c3ccnc(C)c3n(Cc3ccccc3C)c2c1", "IC50", "8.34 µM"),
]

Origin of values: ChEMBL document CHEMBL4425146
